- measured target: full length active recombinant SYK enzyme (Homo sapiens, UniProt P43405)
- Construct: full length active recombinant SYK enzyme (Millipore, Calif.)
- experiment: Inhibition of Syk tyrosine phosphorylation activity (LANCE TR-FRET kinase assay)
- condition: activity in the Syk assays, class symbols
pIC50: −log10 of the molar value.
readout label: pIC50

For record COc1ccc(C(=O)N(C)C)cc1Nc1nc(N[C@@H]2CCCC[C@@H]2N)cnc1C(N)=O the listed pIC50 is 6.00 to 7.00

Reported pIC50 of CC(C)(C)C[C@@H](Nc1cnc(C(N)=O)c(Nc2snc3sccc23)n1)C(N)=O : 8.00 to 9.00

The molecule identified as CC[C@@H](Nc1cnc(C(N)=O)c(Nc2ccc3ncccc3c2)n1)C(N)=O registered its pIC50 at 8.00 to 9.00

Note to self: pIC50 recorded for NC(=O)c1ncc(N[C@@H]2CCCC[C@@H]2N)nc1N[C@H]1CCc2ccccc21 was 6.00 to 7.00

* * *

- measured target: full length active recombinant SYK enzyme (Homo sapiens, UniProt P43405)
- Construct: full length active recombinant SYK enzyme (Millipore, Calif.)
- experiment: Inhibition of Syk tyrosine phosphorylation activity (LANCE TR-FRET kinase assay)
- condition: activity in the Syk assays, class symbols
readout label: IC50

>>> print(df.to_string())
                                   molecule  result_value
0  CC[C@@H](Nc1cnc(C(N)=O)c(Nc2ccc(C(=O)N3CC(F)(F)C3)nc2)n1)C(N)=O [Example 301]  10 to 100 nM

For reference, reported IC50 for COc1cc(Nc2nc(N[C@@H]3CCCC(F)(F)[C@@H]3N)cnc2C(N)=O)cc(OC)c1 [Example 168] stands at 10 to 100 nM

Quick note, IC50 for Cc1cc(Nc2nc(N[C@H](CCS(C)(=O)=O)C(N)=O)cnc2C(N)=O)sn1 [Example 400] landed at 10 to 100 nM

// field: IC50; key: CS(=O)(=O)c1cccc(Nc2nc(N[C@@H]3CCCC[C@@H]3N)cnc2C(N)=O)c1 [Example 154] ; value = 10 to 100 nM

Memo: NC(=O)c1ncc(N[C@@H]2CCCC[C@@H]2N)nc1Nc1cnc2cc(F)ccc2c1 [Example 201] , reported IC50: 1 to 10 nM

// IC50 lookup, molecule = CC[C@@H](Nc1cnc(C(N)=O)c(Nc2ccc(OCC(F)(F)F)nc2)n1)C(N)=O [Example 316] , result: 10 to 100 nM

Please fill in: IC50 reported for NC(=O)c1ncc(N[C@@H]2CCCC(F)(F)[C@@H]2N)nc1Nc1csc2ncccc12 [Example 448] = 1 to 10 nM

Short answer for CC(C)[C@@H](Nc1cnc(C(N)=O)c(Nc2cccc(OC(F)(F)F)c2)n1)C(N)=O [Example 147] : IC50 was 100 to 1000 nM

* * *

- measured target: full length active recombinant SYK enzyme (Homo sapiens)
- Construct: full length active recombinant SYK enzyme (Millipore, Calif.)
- experiment: Inhibition of Syk tyrosine phosphorylation activity (LANCE TR-FRET kinase assay)
- condition: activity in the Syk assays, class symbols
pIC50: −log10 of the molar value.
readout label: pIC50

Example entries begin here.
                                   compound  readout_label  result_value
0  CC(C)(C)C[C@@H](Nc1cnc(C(N)=O)c(Nc2cnn(C3CC3)c2)n1)C(N)=O [Example 259]          pIC50  7.00 to 8.00
1  CC(C)[C@@H](Nc1cnc(C(N)=O)c(Nc2ccc3ccncc3c2)n1)C(N)=O [Example 195]          pIC50  8.00 to 9.00
2  COc1ccc(Nc2nc(N[C@@H]3CCCC[C@@H]3N)cnc2C(N)=O)cc1C(=O)N(C)C [Example 286]          pIC50  6.00 to 7.00

Record NC(=O)c1ncc(N[C@@H]2CCCC[C@@H]2N)nc1Nc1ccc(N2CCOCC2=O)cc1 [Example 442] has full length active recombinant SYK enzyme (Homo sapiens) pIC50 equal to 7.00 to 8.00

# lookup: CC[C@@H](Nc1cnc(C(N)=O)c(Nc2cccc3ccncc23)n1)C(N)=O [Example 377] on full length active recombinant SYK enzyme (Homo sapiens), pIC50 = 6.00 to 7.00

* * *

- measured target: full length active recombinant SYK enzyme (Homo sapiens)
- Construct: full length active recombinant SYK enzyme (Millipore, Calif.)
- experiment: Inhibition of Syk tyrosine phosphorylation activity (LANCE TR-FRET kinase assay)
- condition: activity in the Syk assays, class symbols
readout label: IC50

Observe how each entry below is paired with its result.
>>> print(df.to_string())
                           structure_string  result_value
0  CC[C@@H](Nc1cnc(C(N)=O)c(Nc2ccc3nc(N(C)C)oc3c2)n1)C(N)=O  10 to 100 nM
1  NC(=O)c1ncc(N[C@@H]2CCCC[C@@H]2N)nc1Nc1cncc(-c2ncccn2)c1    1 to 10 nM
2  NC(=O)c1ncc(N[C@@H]2CCCC(F)(F)[C@@H]2N)nc1Nc1ccc(-c2ccncc2)cc1  10 to 100 nM
3  CC[C@@H](Nc1cnc(C(N)=O)c(Nc2cnn3ccccc23)n1)C(N)=O    1 to 10 nM
4  CS(=O)(=O)Cc1ccc(Nc2nc(N[C@@H]3CCCC[C@@H]3N)cnc2C(N)=O)cc1  10 to 100 nM

// COC[C@@H](Nc1cnc(C(N)=O)c(Nc2cnc3cccnc3c2)n1)C(N)=O : IC50 value = 10 to 100 nM

Entry under test: NC(=O)c1ncc(N[C@@H]2CCCC[C@@H]2N)nc1Nc1cncnc1 . Its IC50 was 10 to 100 nM

Entry CC(C)[C@@H](Nc1cnc(C(N)=O)c(Nc2ccc3c(c2)OCO3)n1)C(N)=O ; IC50 = 100 to 1000 nM

response.value for CC(=O)N1CCN(c2ccc(Nc3nc(NC4CC4)cnc3C(N)=O)cc2)CC1 (field: IC50) = 100 to 1000 nM

So for CC(C)(C)[C@@H](Nc1cnc(C(N)=O)c(Nc2ccc3cccnc3c2)n1)C(N)=O , the logged IC50 turned out to be 10 to 100 nM

* * *

The following compounds are listed with their measured pIC50 values.
- measured target: full length active recombinant SYK enzyme (Homo sapiens)
- Construct: full length active recombinant SYK enzyme (Millipore, Calif.)
- experiment: Inhibition of Syk tyrosine phosphorylation activity (LANCE TR-FRET kinase assay)
- condition: activity in the Syk assays, class symbols
pIC50: −log10 of the molar value.

Answered examples (6):
>>> df
                           structure_string                           measured_target  result_value
0  Cc1ccc(Nc2nc(N[C@@H]3CCOC[C@@H]3N)cnc2C(N)=O)cc1  full length active recombinant SYK enzyme (Homo sapiens)  8.00 to 9.00
1  Cc1cc(Nc2nc(N[C@H](Cc3c[nH]c4ccccc34)C(N)=O)cnc2C(N)=O)sn1  full length active recombinant SYK enzyme (Homo sapiens)  8.00 to 9.00
2  NC(=O)c1ncc(N[C@@H]2CCCC[C@@H]2N)nc1Nc1snc2sccc12  full length active recombinant SYK enzyme (Homo sapiens)        > 9.00
3  CC[C@@H](Nc1cnc(C(N)=O)c(Nc2ccc(C(=O)N3CCC3)nc2)n1)C(N)=O  full length active recombinant SYK enzyme (Homo sapiens)  7.00 to 8.00
4  NC(=O)c1ncc(N[C@@H]2CCCC(F)(F)[C@@H]2N)nc1Nc1ccccc1  full length active recombinant SYK enzyme (Homo sapiens)  7.00 to 8.00
5  NC(=O)c1ncc(N[C@@H]2CCCC[C@@H]2N)nc1Nc1cc(CN2CCOCC2)ns1  full length active recombinant SYK enzyme (Homo sapiens)  7.00 to 8.00

Reported pIC50 ( NC(=O)c1ncc(N[C@@H]2CCCC[C@@H]2N)nc1Nc1cnc2scnc2c1 ) = 8.00 to 9.00

Record summary for Cc1cc(Nc2nc(N[C@H](CC3CC3)C(N)=O)cnc2C(N)=O)sn1 : reported pIC50 = 8.00 to 9.00

So for NC(=O)c1ncc(N[C@@H]2CCCC[C@@H]2N)nc1Nc1cncc(C(F)(F)F)c1 , the logged pIC50 turned out to be 8.00 to 9.00

Summary for this compound, CC(C)(C)[C@@H](Nc1cnc(C(N)=O)c(Nc2cnc3ccccc3c2)n1)C(N)=O : pIC50 is 8.00 to 9.00

Documented pIC50 of NC(=O)c1ncc(N[C@@H]2CCCC(F)(F)[C@@H]2N)nc1Nc1cnn2ccccc12 : 8.00 to 9.00

Record summary for CN(CC(F)(F)F)C(=O)c1ccc(Nc2nc(N[C@@H]3CCCC[C@@H]3N)cnc2C(N)=O)cc1 : reported pIC50 = 7.00 to 8.00

// sample Cn1ccc2c(Nc3nc(N[C@@H]4CCCC[C@@H]4N)cnc3C(N)=O)cccc21 , its pIC50 was 8.00 to 9.00

// recorded pIC50 for NC(=O)c1ncc(N[C@@H]2CCCC(F)(F)[C@@H]2N)nc1Nc1cc(F)c2ncccc2c1 : 8.00 to 9.00

response.value for CC(C)(C)C[C@@H](Nc1cnc(C(N)=O)c(Nc2cncc(F)c2)n1)C(N)=O (field: pIC50) = 8.00 to 9.00

Looking up CN(C)C(=O)c1cccc(Nc2nc(N[C@@H]3CCCC[C@@H]3N)cnc2C(N)=O)c1 , I found its pIC50 recorded as 7.00 to 8.00
